- Test system: Saccharomyces cerevisiae
- TEST METHOD NOTES: protein stability index of tFT-peptide fusion (C-terminal peptide) (PSI (0-1 scale)); higher = more stable (slower turnover)
- ASSAY CONTEXT: genetic background: cdc53-1; temperature: 37 C
The class of a record is decided solely by its measured protein stability index; consult bucket A: < 0.4; bucket B: ≥ 0.4 and < 0.6; bucket C: ≥ 0.6

## Input Where would IISICLYFLVRC land among the classes by reported protein stability index?
## Output bucket A

## Input Where would AERPVLIIIEFG land among the classes by reported protein stability index?
## Output bucket B

## Input Where would VLFVRGHTLWLM land among the classes by reported protein stability index?
## Output bucket C

## Input Where would FFPFHPHVLRLL land among the classes by reported protein stability index?
## Output bucket B

## Input Where would FGSFVVWGVWWG land among the classes by reported protein stability index?
## Output bucket B

New cases:
## Input Where would WGEAGRPAGRGA land among the classes by reported protein stability index?
## Output bucket C

## Input Where would LVVFGLVLSLLL land among the classes by reported protein stability index?
## Output bucket B

## Input Where would AMFQLRLLVGSV land among the classes by reported protein stability index?
## Output bucket B

## Input Where would SRVGAGVVRGVG land among the classes by reported protein stability index?
## Output bucket B

## Input Where would CRWHLRIVRGLM land among the classes by reported protein stability index?
## Output bucket C

====

- Test system: Saccharomyces cerevisiae
- TEST METHOD NOTES: protein stability index of tFT-peptide fusion (C-terminal peptide) (PSI (0-1 scale)); higher = more stable (slower turnover)
- ASSAY CONTEXT: genetic background: wild type; temperature: 30 C
So basically: protein stability index at 0.6 or higher? That is yes (1). Lower than 0.6? That is no (0).

Would you please look over these solved cases?
## Input Quick check, protein stability index >= 0.6? DYHPPRRMKEAG
## Output yes (1)

## Input Quick check, protein stability index >= 0.6? KRRTGKEGRIRR
## Output yes (1)

## Input Quick check, protein stability index >= 0.6? CCFVGLRYVLWV
## Output no (0)

## Input Quick check, protein stability index >= 0.6? PVSSPLVFLLSI
## Output yes (1)

## Input Quick check, protein stability index >= 0.6? KKKKMKKNKERK
## Output yes (1)

## Input Quick check, protein stability index >= 0.6? TLRPPPPPAFPP
## Output yes (1)

## Input Quick check, protein stability index >= 0.6? APASFRVLISAF
## Output no (0)

## Input Quick check, protein stability index >= 0.6? PHPRRSTKTQRR
## Output yes (1)

## Input Quick check, protein stability index >= 0.6? PLAPLLSPPAFP
## Output yes (1)

## Input Quick check, protein stability index >= 0.6? FLRYVLLPSLFV
## Output no (0)

New cases:
## Input Quick check, protein stability index >= 0.6? APPPPPPPRLTF
## Output yes (1)

====

Listed here are sequences together with their documented protein stability index.
- Tested on: Saccharomyces cerevisiae
- TEST METHOD NOTES: protein stability index of tFT-peptide fusion (C-terminal peptide) (PSI (0-1 scale)); higher = more stable (slower turnover)
- ASSAY CONTEXT: genetic background: cdc34-1; temperature: 37 C
Keep the answer to the number alone.

Here are 3 sequences together with their reported answers.
## Input # get_value(readout= protein stability index, system= Saccharomyces cerevisiae) for LARRASCFWVRC
## Output 0.671

## Input # get_value(readout= protein stability index, system= Saccharomyces cerevisiae) for CVPGPRWWYHSA
## Output 0.671

## Input # get_value(readout= protein stability index, system= Saccharomyces cerevisiae) for CVILVVISGLLG
## Output 0.166

New cases:
## Input # get_value(readout= protein stability index, system= Saccharomyces cerevisiae) for KLSLRYLLVSLI
## Output 0.513

## Input # get_value(readout= protein stability index, system= Saccharomyces cerevisiae) for SLCVVIFFSSIT
## Output 0.301

## Input # get_value(readout= protein stability index, system= Saccharomyces cerevisiae) for LVWSGLIVVVGG
## Output 0.179

## Input # get_value(readout= protein stability index, system= Saccharomyces cerevisiae) for SPPHSPSALPPP
## Output 0.674

## Input # get_value(readout= protein stability index, system= Saccharomyces cerevisiae) for FERKVHSRWLFF
## Output 0.569

## Input # get_value(readout= protein stability index, system= Saccharomyces cerevisiae) for WIGCTVKIASLY
## Output 0.619

====

Listed here are sequences together with their documented protein stability index.
- Test system: Saccharomyces cerevisiae
- TEST METHOD NOTES: protein stability index of tFT-peptide fusion (C-terminal peptide) (PSI (0-1 scale)); higher = more stable (slower turnover)
- ASSAY CONTEXT: genetic background: wild type; temperature: 30 C
Keep the answer to the number alone.

Here are 8 sequences together with their reported answers.
## Input // lookup protein stability index for LRWKKRNGIASK [NOP16 C-terminal 12 aa]
## Output 0.663

## Input // lookup protein stability index for LPPEGKPKGKDD [TAZ1 C-terminal 12 aa]
## Output 0.661

## Input // lookup protein stability index for QGKAFYDRIKDL [RFS1 C-terminal 12 aa]
## Output 0.255

## Input // lookup protein stability index for KLDVDDEENEGF [MRD1 C-terminal 12 aa]
## Output 0.653

## Input // lookup protein stability index for FLILVFVMKKNH [YDR018C C-terminal 12 aa]
## Output 0.269

## Input // lookup protein stability index for LSLRTKNTENKE [YGL159W C-terminal 12 aa]
## Output 0.688

## Input // lookup protein stability index for KDFQVNKEIKPY [SIR4 C-terminal 12 aa]
## Output 0.738

## Input // lookup protein stability index for SRGHDLASEYPL [ERS1 C-terminal 12 aa]
## Output 0.682

Moving on to the next sequence.
## Input // lookup protein stability index for VGFCGLYYYFRK [YPR195C C-terminal 12 aa]
## Output 0.648

====

- Tested on: Saccharomyces cerevisiae
- TEST METHOD NOTES: protein stability index of tFT-peptide fusion (C-terminal peptide) (PSI (0-1 scale)); higher = more stable (slower turnover)
- ASSAY CONTEXT: genetic background: das1 deletion; temperature: 30 C
MEASUREMENT NAME: protein stability index
Keep the answer to the number alone.

Here are 5 sequences together with their reported answers.
## Input // lookup protein stability index for GGPFPYYFNTFC [YKL169C C-terminal 12 aa]
## Output 0.704

## Input // lookup protein stability index for ASFENETVKANV [RFC3 C-terminal 12 aa]
## Output 0.706

## Input // lookup protein stability index for NAKSKVFSIENN [LSG1 C-terminal 12 aa]
## Output 0.681

## Input // lookup protein stability index for RARPRTANRQHM [CCT2 C-terminal 12 aa]
## Output 0.683

## Input // lookup protein stability index for MGCIKGTVKTKY [ABZ2 C-terminal 12 aa]
## Output 0.668

New cases:
## Input // lookup protein stability index for KHVMMDMQQPSQ [MRPS17 C-terminal 12 aa]
## Output 0.699

## Input // lookup protein stability index for IYENDPNTKKNN [ERG3 C-terminal 12 aa]
## Output 0.736

## Input // lookup protein stability index for LRIYKNPPLDGP [YJL163C C-terminal 12 aa]
## Output 0.729

## Input // lookup protein stability index for AILREVQFEVFR [NTA1 C-terminal 12 aa]
## Output 0.699

## Input // lookup protein stability index for YKASGSYLEKYF [YPK3 C-terminal 12 aa]
## Output 0.712

## Input // lookup protein stability index for DLDFLGSDIEFE [HFM1 C-terminal 12 aa]
## Output 0.718

## Input // lookup protein stability index for GHSHKHKGHQKK [KRI1 C-terminal 12 aa]
## Output 0.673

## Input // lookup protein stability index for SIFSYCIIYFIS [YDR524C-A C-terminal 12 aa]
## Output 0.222

## Input // lookup protein stability index for AMFNDIWKNANE [UPS3 C-terminal 12 aa]
## Output 0.726

## Input // lookup protein stability index for PIRGVTGGVYKW [MRPL22 C-terminal 12 aa]
## Output 0.71

====

- Tested on: Saccharomyces cerevisiae
- TEST METHOD NOTES: protein stability index of tFT-peptide fusion (C-terminal peptide) (PSI (0-1 scale)); higher = more stable (slower turnover)
- ASSAY CONTEXT: genetic background: wild type; temperature: 30 C
So basically: protein stability index at 0.3 or higher? That is T. Lower than 0.3? That is F.

Would you please look over these solved cases?
## Input Quick check, protein stability index >= 0.3? ILLHSFFSFYLL
## Output F

## Input Quick check, protein stability index >= 0.3? LYRSLLLSFCVL
## Output T

New cases:
## Input Quick check, protein stability index >= 0.3? FYFLSFLLLLSP
## Output F

## Input Quick check, protein stability index >= 0.3? GRPYHLCLFSCF
## Output T
